target: Kras and SOS1 (biotin-tagged human Kras loaded with GDP, His-tagged human SOS1) (Homo sapiens, UniProt P01116, G12D); construct: made in house; host or cells: E. coli (stated for Kras only); test: Protein-protein interaction inhibition between Kras and SOS1 (KrasGl2D-SOS PPI) using AlphaScreen; type: binding; conditions: AlphaScreen; biotin-tagged human Kras loaded with GDP, His-tagged human SOS1; read-out: KRAS G12D-SOS PPI IC50
Sequence (P01116 1-188 isoform P01116-2 G12D): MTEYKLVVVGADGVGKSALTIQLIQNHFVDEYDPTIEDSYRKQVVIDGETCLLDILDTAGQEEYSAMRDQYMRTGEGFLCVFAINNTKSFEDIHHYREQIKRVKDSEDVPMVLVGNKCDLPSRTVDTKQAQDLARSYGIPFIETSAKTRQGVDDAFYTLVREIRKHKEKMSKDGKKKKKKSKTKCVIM
pIC50: −log10 of the molar value. Positions of bridges follow the written chain, without caps; N, C: chain ends. Non-standard residues stand in square brackets, D forms with d. Residues, ends and D or L forms follow the SMILES beside them. *: point of attachment. hPhe(3-Cl-4-CF3) = N[C@@H](CCc1ccc(C(F)(F)F)c(Cl)c1)C(=O)O; NMePhe(4-Me) = CN[C@@H](Cc1ccc(C)cc1)C(=O)O; NMeGly(cPent) = CN[C@H](C(=O)O)C1CCCC1; Phe(3-I) = N[C@@H](Cc1cccc(I)c1)C(=O)O; NMeCha = CN[C@@H](CC1CCCCC1)C(=O)O; NMeChg = CN[C@H](C(=O)O)C1CCCCC1; NMeF = CN[C@@H](Cc1ccccc1)C(=O)O; NMeE = CN[C@@H](CCC(=O)O)C(=O)O; NMeD = CN[C@@H](CC(=O)O)C(=O)O; NMeL = CN[C@@H](CC(C)C)C(=O)O; NMeV = CN[C@H](C(=O)O)C(C)C; d(β3hA) = C[C@@H](N)CC(=O)O; NMeAbu = CC[C@H](NC)C(=O)O; Morpholide = C1CN(*)CCO1; NMeA = CN[C@@H](C)C(=O)O; Nle = CCCC[C@H](N)C(=O)O; Piperidide = C1CCN(*)CC1; dNMeA = CN[C@H](C)C(=O)O; Ac5c = NC1(C(=O)O)CCCC1; Aze = O=C(O)[C@@H]1CCN1; Sar = CNCC(=O)O
experimental-endpoint: pIC50

- compound: "CC[C@H](C)[C@@H]1NC(=O)[C@H](C)N(C)C(=O)C[C@@H](C)NC(=O)[C@H](C2CCCC2)N(C)C(=O)C2(CCCC2)NC(=O)[C@@H]2CCCN2C(=O)[C@H](CCc2ccc(C(F)(F)F)c(Cl)c2)NC(=O)[C@@H](C)N(C)C(=O)[C@H](Cc2ccccc2)N(C)C(=O)[C@@H]2CCN2C(=O)[C@H](C)N(C)C1=O [Compound 671] (cyclo([Ac5c][NMeGly(cPent)][d(β3hA)][NMeA]I[NMeA][Aze][NMeF][dNMeA][hPhe(3-Cl-4-CF3)]P))"
  recorded-number: 7.28
- compound: "CC[C@H](C)[C@@H]1NC(=O)[C@H](CC(C)C)N(C)C(=O)C[C@@H](C(=O)N2CCCCC2)N(C)C(=O)[C@H](C2CCCCC2)N(C)C(=O)C2(CCCC2)NC(=O)[C@@H]2CCCN2C(=O)[C@H](CCc2ccc(C(F)(F)F)c(Cl)c2)NC(=O)CN(C)C(=O)[C@H](C)N(C)C(=O)CN(C)C(=O)CN(C)C1=O [Compound 1681] ([NMeL]I[Sar][Sar][NMeA][Sar][hPhe(3-Cl-4-CF3)]P[Ac5c][NMeChg][NMeD]-Piperidide; lactam N-11)"
  recorded-number: 8.51
- compound: "CCCC[C@@H]1NC(=O)[C@H](Cc2cccc(I)c2)NC(=O)CN(C)C(=O)[C@H](Cc2ccc(C)cc2)N(C)C(=O)CN(C)C(=O)CN(C)C(=O)[C@H]([C@@H](C)CC)NC(=O)[C@H](CC(C)C)N(C)C(=O)C[C@@H](C(=O)N2CCCCC2)N(C)C(=O)[C@H](CC(C)C)NC(=O)[C@H](CCC(=O)N(C)C)N(C)C1=O [Compound 2100] ([NMeL]I[Sar][Sar][NMePhe(4-Me)][Sar][Phe(3-I)][Nle][NMeE](NMe2)L[NMeD]-Piperidide; lactam N-11)"
  recorded-number: 7.82
- compound: "CC[C@H](C)[C@@H]1NC(=O)[C@H](CC)N(C)C(=O)C[C@@H](C(=O)N2CCOCC2)N(C)C(=O)[C@H](C2CCCCC2)N(C)C(=O)C2(CCCC2)NC(=O)[C@@H]2CCCN2C(=O)[C@H](CCc2ccc(C(F)(F)F)c(Cl)c2)NC(=O)CN(C)C(=O)[C@H](CC2CCCCC2)N(C)C(=O)CN(C)C(=O)CN(C)C1=O [Compound 1915] ([NMeAbu]I[Sar][Sar][NMeCha][Sar][hPhe(3-Cl-4-CF3)]P[Ac5c][NMeChg][NMeD]-Morpholide; lactam N-11)"
  recorded-number: 9.42
- compound: "CC[C@H](C)[C@@H]1NC(=O)[C@H](C)N(C)C(=O)C[C@@H](C)NC(=O)[C@H](C(C)C)N(C)C(=O)C2(CCCC2)NC(=O)[C@@H]2CCCN2C(=O)[C@H](CCc2ccc(C(F)(F)F)c(Cl)c2)NC(=O)[C@@H](C)N(C)C(=O)[C@H](CC2CCCCC2)N(C)C(=O)[C@@H]2CCN2C(=O)[C@H](C)N(C)C1=O [Compound 831] (cyclo([Ac5c][NMeV][d(β3hA)][NMeA]I[NMeA][Aze][NMeCha][dNMeA][hPhe(3-Cl-4-CF3)]P))"
  recorded-number: 6.74

----------
target: Kras and SOS1 (biotin-tagged human Kras loaded with GDP, His-tagged human SOS1) (Homo sapiens, UniProt P01116, G12D); construct: made in house; host or cells: E. coli (stated for Kras only); test: Protein-protein interaction inhibition between Kras and SOS1 (KrasGl2D-SOS PPI) using AlphaScreen; type: binding; settings: AlphaScreen; biotin-tagged human Kras loaded with GDP, His-tagged human SOS1; read-out: KRAS G12D-SOS PPI IC50
pIC50: −log10 of the molar value. Positions of bridges follow the written chain, without caps; N, C: chain ends. Non-standard residues stand in square brackets, D forms with d. Residues, ends and D or L forms follow the SMILES beside them. *: point of attachment. hPhe(3-Cl-4-CF3) = N[C@@H](CCc1ccc(C(F)(F)F)c(Cl)c1)C(=O)O; hPhe(3-F,4-CF3) = N[C@@H](CCc1ccc(C(F)(F)F)c(F)c1)C(=O)O; NMePhe(4-CF3) = CN[C@@H](Cc1ccc(C(F)(F)F)cc1)C(=O)O; hPhe(4-CF3) = N[C@@H](CCc1ccc(C(F)(F)F)cc1)C(=O)O; 3Oxa8azabicyclo(3.2.1)octane = C1CC2COCC1N2*; NMePhe(4-Me) = CN[C@@H](Cc1ccc(C)cc1)C(=O)O; NMePhe(4-F) = CN[C@@H](Cc1ccc(F)cc1)C(=O)O; hPhe(4-Cl) = N[C@@H](CCc1ccc(Cl)cc1)C(=O)O; Pro(4,4-F2) = O=C(O)[C@@H]1CC(F)(F)CN1; NMeCha = CN[C@@H](CC1CCCCC1)C(=O)O; NMeChg = CN[C@H](C(=O)O)C1CCCCC1; NMeF = CN[C@@H](Cc1ccccc1)C(=O)O; NMeI = CC[C@H](C)[C@H](NC)C(=O)O; NMeD = CN[C@@H](CC(=O)O)C(=O)O; dNMeD = CN[C@H](CC(=O)O)C(=O)O; NMeL = CN[C@@H](CC(C)C)C(=O)O; NMeNva = CCC[C@H](NC)C(=O)O; NMeV = CN[C@H](C(=O)O)C(C)C; d(β3hA) = C[C@@H](N)CC(=O)O; Morpholide = C1CN(*)CCO1; NMeA = CN[C@@H](C)C(=O)O; Piperidide = C1CCN(*)CC1; Pyrrolidide = C1CCN(*)C1; Ac5c = NC1(C(=O)O)CCCC1; Aze = O=C(O)[C@@H]1CCN1; NcPrGly = O=C(O)CNC1CC1; Sar = CNCC(=O)O

- compound: "CCC[C@H]1C(=O)N[C@@H]([C@@H](C)CC)C(=O)N(C)CC(=O)N(C)CC(=O)N(C)[C@@H](Cc2ccc(C(F)(F)F)cc2)C(=O)N(C)CC(=O)N[C@@H](CCc2ccc(C(F)(F)F)c(Cl)c2)C(=O)N2CCC[C@H]2C(=O)NC2(CCCC2)C(=O)N(C)[C@@H](C2CCCCC2)C(=O)N(C)[C@H](C(=O)N2C3CCC2COC3)CC(=O)N1C [Compound 1983] ([NMeNva]I[Sar][Sar][NMePhe(4-CF3)][Sar][hPhe(3-Cl-4-CF3)]P[Ac5c][NMeChg][NMeD]-{3Oxa8azabicyclo(3.2.1)octane}; lactam N-11)"
  pIC50: 9.17
- compound: "CC[C@H](C)[C@@H]1NC(=O)[C@H](C)N(C)C(=O)C[C@@H](C(=O)N2CCCCC2)N(C)C(=O)[C@H]([C@@H](C)CC)N(C)C(=O)C2(CCCC2)NC(=O)[C@H](Cc2ccc(F)cc2)N(C)C(=O)[C@H](CCc2ccc(C(F)(F)F)c(Cl)c2)NC(=O)CN(C)C(=O)[C@H](Cc2ccc(C)cc2)N(C)C(=O)[C@@H]2CCN2C(=O)[C@H](C)N(C)C1=O [Compound 1885] ([NMeA]I[NMeA][Aze][NMePhe(4-Me)][Sar][hPhe(3-Cl-4-CF3)][NMePhe(4-F)][Ac5c][NMeI][NMeD]-Piperidide; lactam N-11)"
  pIC50: 7.49
- compound: "CC[C@H](C)[C@@H]1NC(=O)[C@H](CC(C)C)N(C)C(=O)C[C@@H](C)NC(=O)[C@H](C(C)C)N(C)C(=O)C2(CCCC2)NC(=O)[C@@H]2CCCN2C(=O)[C@H](CCc2ccc(Cl)cc2)NC(=O)CN(C)C(=O)[C@H](CC2CCCCC2)N(C)C(=O)CN(C)C(=O)CN(C)C1=O [Compound 576] (cyclo([Ac5c][NMeV][d(β3hA)][NMeL]I[Sar][Sar][NMeCha][Sar][hPhe(4-Cl)]P))"
  pIC50: 6.64
- compound: "CC[C@H](C)[C@@H]1NC(=O)[C@H](CC(C)C)N(C)C(=O)C[C@@H](C)NC(=O)[C@H](C(C)C)N(C)C(=O)C2(CCCC2)NC(=O)[C@@H]2CCCN2C(=O)[C@H](CCc2ccc(C(F)(F)F)c(Cl)c2)NC(=O)CN(C)C(=O)[C@H](CC2CCCCC2)N(C)C(=O)CN(C)C(=O)CN(C2CC2)C1=O [Compound 542] (cyclo([Ac5c][NMeV][d(β3hA)][NMeL]I[NcPrGly][Sar][NMeCha][Sar][hPhe(3-Cl-4-CF3)]P))"
  pIC50: 7.21
- compound: "CC[C@H](C)[C@@H]1NC(=O)[C@H](CC(C)C)N(C)C(=O)C[C@@H](C)NC(=O)[C@H](C(C)C)N(C)C(=O)C2(CCCC2)NC(=O)[C@@H]2CCCN2C(=O)[C@H](CCc2ccc(C(F)(F)F)c(Cl)c2)NC(=O)CN(C)C(=O)[C@H](Cc2ccccc2)N(C)C(=O)CN(C)C(=O)CN(C)C1=O [Compound 1606] (cyclo([Ac5c][NMeV][d(β3hA)][NMeL]I[Sar][Sar][NMeF][Sar][hPhe(3-Cl-4-CF3)]P))"
  pIC50: 7.82
- compound: "CC[C@H](C)[C@@H]1NC(=O)[C@H](CC(C)C)N(C)C(=O)C[C@@H](C)NC(=O)[C@H](CC(C)C)N(C)C(=O)C2(CCCC2)NC(=O)[C@@H]2CC(F)(F)CN2C(=O)[C@H](CCc2ccc(C(F)(F)F)c(F)c2)NC(=O)CN(C)C(=O)[C@H](CC2CCCCC2)N(C)C(=O)CN(C)C(=O)CN(C)C1=O [Compound 1509] (cyclo([Ac5c][NMeL][d(β3hA)][NMeL]I[Sar][Sar][NMeCha][Sar][hPhe(3-F,4-CF3)][Pro(4,4-F2)]))"
  pIC50: 7.64
- compound: "CC[C@H](C)[C@@H]1NC(=O)[C@H](CC(C)C)N(C)C(=O)C[C@H](C(=O)N2CCCC2)N(C)C(=O)[C@H]([C@@H](C)CC)N(C)C(=O)C2(CCCC2)NC(=O)[C@@H]2CCCN2C(=O)[C@H](CCc2ccc(C(F)(F)F)c(Cl)c2)NC(=O)CN(C)C(=O)[C@H](Cc2ccc(C(F)(F)F)cc2)N(C)C(=O)[C@@H]2CCN2C(=O)[C@H](C)N(C)C1=O [Compound 1734] ([NMeL]I[NMeA][Aze][NMePhe(4-CF3)][Sar][hPhe(3-Cl-4-CF3)]P[Ac5c][NMeI][dNMeD]-Pyrrolidide; lactam N-11)"
  pIC50: 7.15
- compound: "CC[C@H](C)[C@@H]1NC(=O)[C@H](CC(C)C)N(C)C(=O)C[C@@H](C(=O)N2CCOCC2)NC(=O)[C@H]([C@@H](C)CC)N(C)C(=O)C2(CCCC2)NC(=O)[C@@H]2CCCN2C(=O)[C@H](CCc2ccc(C(F)(F)F)c(Cl)c2)NC(=O)CN(C)C(=O)[C@H](CC2CCCCC2)N(C)C(=O)CN(C)C(=O)CN(C)C1=O [Compound 1277] ([NMeL]I[Sar][Sar][NMeCha][Sar][hPhe(3-Cl-4-CF3)]P[Ac5c][NMeI]D-Morpholide; lactam N-11)"
  pIC50: 8.17
- compound: "CC[C@H](C)[C@@H]1NC(=O)[C@H](CC(C)C)N(C)C(=O)C[C@@H](C(=O)N2CCCC2)N(C)C(=O)[C@H](C2CCCCC2)N(C)C(=O)C2(CCCC2)NC(=O)[C@@H]2CCCN2C(=O)[C@H](CCc2ccc(C(F)(F)F)cc2)NC(=O)CN(C)C(=O)[C@H](CC2CCCCC2)N(C)C(=O)CN(C)C(=O)CN(C)C1=O [Compound 1939] ([NMeL]I[Sar][Sar][NMeCha][Sar][hPhe(4-CF3)]P[Ac5c][NMeChg][NMeD]-Pyrrolidide; lactam N-11)"
  pIC50: 9.15
